experiment: logP by HPLC on reversed-phase columns (C 18), EEC directive 79/831 Annex V.A8; type: physicochemical; details: LC-MS, neutral range, pH 7.8, 0.001 molar aqueous ammonium bicarbonate and acetonitrile

>  <smiles-structure>
COc1ccc(-c2cccc(-c3csc(N=C4CCCCN4)n3)c2)cc1

>  <log P (***)>
3.88

$$$$
>  <smiles-structure>
Clc1ccc(-c2csc(N=C3CCCCN3)n2)c(Cl)c1

>  <log P (***)>
3.92

$$$$
>  <smiles-structure>
CCOc1ccccc1-c1csc(N=C2CCCCN2)n1

>  <log P (***)>
3.35

$$$$
>  <smiles-structure>
CCOc1ccccc1-c1csc(N=C2CCCCN2C(C)=O)n1

>  <log P (***)>
5.03

$$$$
>  <smiles-structure>
FC(F)(F)c1cccc(-c2csc(N=C3CCCCN3)n2)c1Cl

>  <log P (***)>
3.72

$$$$
>  <smiles-structure>
Fc1ccc(Oc2ccccc2-c2csc(N=C3CCCCN3)n2)cc1F

>  <log P (***)>
4.18

$$$$
>  <smiles-structure>
Fc1ccc(-c2csc(N=C3CCCCN3)n2)cc1Cl

>  <log P (***)>
3.45

$$$$
>  <smiles-structure>
CC(=O)N1CCCCC1=Nc1nc(-c2ccccc2Oc2ccccc2)cs1

>  <log P (***)>
4.39

$$$$
>  <smiles-structure>
FC(F)(F)c1cccc(-c2csc(N=C3CCCCN3)n2)c1

>  <log P (***)>
3.55

$$$$
>  <smiles-structure>
Clc1cccc(Cl)c1Cc1ccccc1-c1csc(N=C2CCCCN2)n1

>  <log P (***)>
4.36

$$$$
>  <smiles-structure>
CC(C)(C)c1cc(Oc2ccccc2-c2csc(N=C3CCCN3)n2)ccc1Cl

>  <log P (***)>
5.53

$$$$
>  <smiles-structure>
Cc1ccc(Oc2ccccc2-c2csc(N=C3CCCCN3)n2)c(C)c1

>  <log P (***)>
4.9

$$$$
>  <smiles-structure>
Cc1sc(N=C2CCCCN2)nc1-c1ccc(Cl)cc1

>  <log P (***)>
3.72

$$$$
>  <smiles-structure>
Clc1cccc(-c2csc(N=C3CCCCN3)n2)c1Cl

>  <log P (***)>
3.72

$$$$
>  <smiles-structure>
Fc1ccc(Cc2ccccc2-c2csc(N=C3CCCCN3)n2)cc1

>  <log P (***)>
4.19

$$$$
>  <smiles-structure>
C=CCOc1ccccc1-c1csc(N=C2CCCCN2)n1

>  <log P (***)>
3.45

$$$$
>  <smiles-structure>
CC(C)(C)c1ccc(-c2csc(N=C3CCCCN3)n2)cc1

>  <log P (***)>
4.35

$$$$
>  <smiles-structure>
CC(=O)N1CCCCC1=Nc1nc(-c2ccc(Cl)cc2)c(C)s1

>  <log P (***)>
3.96

$$$$

* * *

experiment: logP by HPLC on reversed-phase columns (C 18), EEC directive 79/831 Annex V.A8; type: physicochemical; details: LC-MS, neutral range, pH 7.8, 0.001 molar aqueous ammonium bicarbonate and acetonitrile

>  <smiles-structure>
CC(=O)N1CCCCC1=Nc1nc(-c2ccc3c(c2)OCO3)cs1

>  <log P (***)>
2.95

$$$$
>  <smiles-structure>
Fc1ccc(Oc2ccc(-c3csc(N=C4CCCN4)n3)cc2)c(F)c1

>  <log P (***)>
3.59

$$$$
>  <smiles-structure>
Brc1ccccc1-c1csc(N=C2CCCCN2)n1

>  <log P (***)>
3.25

$$$$
>  <smiles-structure>
CC(=O)N1CCCCC1=Nc1nc(-c2cccc(C(F)(F)F)c2F)cs1

>  <log P (***)>
4.23

$$$$
>  <smiles-structure>
Clc1ccc(Oc2ccccc2-c2csc(N=C3CCCCN3)n2)c(Cl)c1

>  <log P (***)>
4.84

$$$$
>  <smiles-structure>
Clc1ccc(-c2csc(N=C3CCCCN3)n2)cc1

>  <log P (***)>
3.47

$$$$
>  <smiles-structure>
Fc1ccc(-c2csc(N=C3CCCCN3)n2)cc1F

>  <log P (***)>
3.12

$$$$
>  <smiles-structure>
CC(=O)N1CCCCC1=Nc1nc(-c2ccccc2Oc2ccc(F)cc2F)cs1

>  <log P (***)>
4.32

$$$$
>  <smiles-structure>
CC(C)(C)c1cc(Oc2ccccc2-c2csc(N=C3CCCCN3)n2)ccc1Cl

>  <log P (***)>
5.96

$$$$

* * *

test: logP by HPLC on reversed-phase columns (C 18), EEC directive 79/831 Annex V.A8; assay type: physicochemical; details: acidic range, pH 2.3, 0.1% aqueous phosphoric acid and acetonitrile
We begin with a simple list: items and their reported log P (*).
quantity-kind: log P (*)

>  <smiles-structure>
Fc1ccc(Oc2ccc(-c3csc(N=C4CCCCN4)n3)cc2)c(F)c1

>  <quantity-kind>
log P (*)

>  <experimental-value>
2.12

$$$$
>  <smiles-structure>
Clc1ccc(-c2csc(N=C3CCCCN3)n2)cn1

>  <quantity-kind>
log P (*)

>  <experimental-value>
0.94

$$$$
>  <smiles-structure>
Fc1ccc(Cc2ccccc2-c2csc(N=C3CCCCN3)n2)c(F)c1

>  <quantity-kind>
log P (*)

>  <experimental-value>
2.04

$$$$
>  <smiles-structure>
CC(=O)N1CCCCC1=Nc1nc(-c2ccccc2Oc2ccc(F)cc2F)cs1

>  <quantity-kind>
log P (*)

>  <experimental-value>
4.36

$$$$
>  <smiles-structure>
CC(C)(C)c1cc(Oc2ccccc2-c2csc(N=C3CCCCN3)n2)ccc1Cl

>  <quantity-kind>
log P (*)

>  <experimental-value>
2.92

$$$$
>  <smiles-structure>
Clc1ccc(-c2csc(N=C3CCCCN3)n2)c(Cl)c1

>  <quantity-kind>
log P (*)

>  <experimental-value>
1.76

$$$$

* * *

assay: logP by HPLC on reversed-phase columns (C 18), EEC directive 79/831 Annex V.A8; type: physicochemical; conditions: LC-MS, neutral range, pH 7.8, 0.001 molar aqueous ammonium bicarbonate and acetonitrile
Marks after values point to notes of the source that are not given here.
We begin with a simple list: items and their reported log P (***).
quantity-kind: log P (***)

>  <smiles-structure>
FC(F)(F)c1cc(Oc2ccccc2-c2csc(N=C3CCCCN3)n2)ccc1Cl

>  <experimental-value>
4.9

$$$$
>  <smiles-structure>
COc1cccc(-c2csc(N=C3CCCCN3)n2)c1

>  <experimental-value>
2.76

$$$$
>  <smiles-structure>
CC(=O)N1CCCCC1=Nc1nc(-c2cccc(F)c2F)cs1

>  <experimental-value>
3.63**; 3.63***; 3.63*

$$$$
>  <smiles-structure>
Fc1ccc(Oc2ccccc2-c2csc(N=C3CCCCN3)n2)c(F)c1

>  <experimental-value>
3.9

$$$$
>  <smiles-structure>
Fc1ccc(F)c(-c2csc(N=C3CCCCN3)n2)c1

>  <experimental-value>
3.16

$$$$

* * *

Test: logP by HPLC on reversed-phase columns (C 18), EEC directive 79/831 Annex V.A8
Assay type: physicochemical
Settings: acidic range, pH 2.3, 0.1% aqueous phosphoric acid and acetonitrile
Protocol: Calibration was carried out using unbranched alkan-2-ones (having from 3 to 16 carbon atoms) with known logP values (the logP values were determined by the retention times using linear interpolation between two successive alkanones).
Decision: log P (*) compared against 2; not below it gives rule met, below it gives rule not met.

>  <compound>
CCOc1ccccc1-c1csc(N=C2CCCCN2)n1

>  <answer-label>
rule not met

$$$$
>  <compound>
Fc1ccc(F)c(Oc2ccccc2-c2csc(N=C3CCCCN3)n2)c1

>  <answer-label>
rule not met

$$$$
>  <compound>
CC(=O)N1CCCCC1=Nc1nc(-c2cccc(C(F)(F)F)c2F)cs1

>  <answer-label>
rule met

$$$$
>  <compound>
Fc1cc(F)cc(-c2csc(N=C3CCCCN3)n2)c1

>  <answer-label>
rule not met

$$$$
>  <compound>
c1ccc(Oc2ccccc2-c2csc(N=C3CCCCN3)n2)cc1

>  <answer-label>
rule met

$$$$
>  <compound>
Fc1ccc(-c2csc(N=C3CCCCN3)n2)cc1Cl

>  <answer-label>
rule not met

$$$$
>  <compound>
c1sc(N=C2CCCCN2)nc1CC1CC1

>  <answer-label>
rule not met

$$$$
>  <compound>
Fc1ccc(-c2csc(N=C3CCCCN3)n2)cc1F

>  <answer-label>
rule not met

$$$$
>  <compound>
Fc1cccc(F)c1Oc1ccccc1-c1csc(N=C2CCCCN2)n1

>  <answer-label>
rule not met

$$$$
>  <compound>
Clc1cccc(-c2csc(N=C3CCCCN3)n2)c1Cl

>  <answer-label>
rule not met

$$$$
>  <compound>
CC(c1ccccc1)c1csc(N=C2CCCCN2)n1 (centres unmarked)

>  <answer-label>
rule not met

$$$$
>  <compound>
Clc1ccc(Oc2ccccc2-c2csc(N=C3CCCN3)n2)c(Cl)c1

>  <answer-label>
rule met

$$$$
>  <compound>
Brc1cccc(Oc2ccccc2-c2csc(N=C3CCCCN3)n2)c1

>  <answer-label>
rule met

$$$$
>  <compound>
COc1ccc(-c2csc(N=C3CCCCN3)n2)cc1OC

>  <answer-label>
rule not met

$$$$
>  <compound>
Clc1cc(Cl)cc(-c2csc(N=C3CCCCN3)n2)c1

>  <answer-label>
rule not met

$$$$
>  <compound>
FC(F)(F)c1cc(Oc2ccccc2-c2csc(N=C3CCCCN3)n2)ccc1Cl

>  <answer-label>
rule met

$$$$
>  <compound>
Cc1sc(N=C2CCCCN2)nc1-c1ccc(Cl)cc1

>  <answer-label>
rule not met

$$$$
>  <compound>
Cc1sc(N=C2CCCCN2)nc1-c1cccc(F)c1F

>  <answer-label>
rule not met

$$$$
